system: PfAP2-G AP2 domain (GST-tagged); assay: gcPBM binding intensity (ln(normalized median fluorescence intensity)); higher = stronger DNA binding
Whole data set: some 25,000 sequences, median “ln(normalized median fluorescence intensity)” near 10, cut for the highest 2% near 12. This is one part of a sample in which the highest values are shown more often than they occur.
property_label: gcPBM binding intensity (ln)
API note: the answer field is a bare number with no unit suffix.

AATAATATTTAATACGCACACAATAATAATATAAAA [CACACA_site1763]; 10.4
ATATTATCACAAGGTGGTACACAAAAAAAAAAAAAA [XGTACX_site8224]; 11.4
AAAAAAAAAACAAATACACACGCACCCAAAAAAAAA [CACACA_site8166]; 10.5

Q: Supply measured gcPBM binding intensity (ln) of AAAAAAAAAATGTGCACACGCGTACACCCAAAAAAA [CACACA_site5149] in your reply.
A: 11.7

Q: Give gcPBM binding intensity (ln) for TTTATTGAACGTACACATATATATATGTATATATTT [TGCATGCA_negctrl_site141]
A: 11.3

Q: // Input: AAAATTTAAATAGGAAGTACGTTCACTAAGAAAATA [XGTACX_site6546] . Output its gcPBM binding intensity (ln) only.
A: 11

Q: Please supply the value of reported gcPBM binding intensity (ln) for the item AACATATAAAAATGTGCACACACACCCATATATATA [CACACA_site1525]
A: 10.4

Q: Indicate its recorded gcPBM binding intensity (ln); the sequence in question is TGTTGTATTGAAGCTAAAAAATGAGGCAAAAAAAAA [CACACA_negctrl_site1189]
A: 10.2

Q: Check the records and state gcPBM binding intensity (ln) for ATGGACTTTTATAGTTGTACATACTATGAGAACTTT [XGTACX_site2800]
A: 11.7

Q: Quickly give me recorded gcPBM binding intensity (ln) for TATATATATTTATACACACAAACATAATACTACTTA [CACACA_site2022]
A: 10.3

Q: For CTGAACCCGTTATGGTGTACATAAAATAAGACACAG [XGTACX_site3484] , write its gcPBM binding intensity (ln).
A: 11.6

Q: Look up and state reported gcPBM binding intensity (ln) for CTATACATATTATATAGTACTTTATTATTATGACTA [XGTACX_site1382]
A: 10.8

Q: Indicate its recorded gcPBM binding intensity (ln); the sequence in question is TTATAAATAAAAAATACACACATATATTTATTTATA [CACACA_site6242]
A: 9.77
